Test: in vitro
Type: cell-based
Conditions: human, MRC-5 cells
Residues, ends and D or L forms follow the SMILES beside them.
Experimental Readout: viability at 144 h (%)
Give a bare numeral; the unit % is implied.

// field: viability at 144 h; key: C[C@@H](O)[C@H](N)C(=O)N[C@@H](CCCCN)C(=O)N1CCC[C@H]1C(=O)N[C@@H](CCCNC(=N)N)C(=O)O [Tuftsin, Thr-Lys-Pro-Arg-OH] (H-TKPR-OH) ; value = 100

====

Assay: in vitro
Details: human
Residues, ends and D or L forms follow the SMILES beside them.
Experimental Readout: viability at 144 h, 10 micrograms per ml
Include the unit after the number when you answer.

// field: viability at 144 h, 10 micrograms per ml; key: C[C@@H](O)[C@H](N)C(=O)N[C@@H](CCCCN)C(=O)N1CCC[C@H]1C(=O)N[C@@H](CCCNC(=N)N)C(=O)O [Tuftsin, Thr-Lys-Pro-Arg-OH] (H-TKPR-OH) ; value = 100%
